assay: Antioxidant activity assessed as DPPH radical scavenging activity by UV-Visible spectrophotometry; assay type: physicochemical
pIC50: −log10 of the molar value.
Experimental Readout: pIC50

- Given Smiles: "O=C(N/N=C/c1ccccc1O)c1ccncc1"
  pIC50: "< 3.00"
- Given Smiles: "COc1cc(/C=N/N(C)c2nc3ccccc3s2)cc(OC)c1OC"
  pIC50: "< 3.00"
- Given Smiles: "COc1cc(/C=N/N(C)C(=O)OCc2ccccc2)cc(OC)c1OC.Cl"
  pIC50: "< 5.15"

Inquiry: Return reported pIC50; argument: O=C(N/N=C/c1ccccc1O)OCc1ccccc1
Reply text: < 3.00

Inquiry: Return reported pIC50; argument: COc1cc(/C=N/NC(=O)c2ccncc2)cc(OC)c1OC
Reply text: < 3.00

Inquiry: Return reported pIC50; argument: COc1cc(/C=N/NC(=O)OCc2ccccc2)cc(OC)c1OC
Reply text: < 3.00
